The origin of these recorded values is patent US20240246964A1.

# subject_of_test: human PD-L1 (Homo sapiens (Human))
# Sequence (Q9NZQ7 19-290): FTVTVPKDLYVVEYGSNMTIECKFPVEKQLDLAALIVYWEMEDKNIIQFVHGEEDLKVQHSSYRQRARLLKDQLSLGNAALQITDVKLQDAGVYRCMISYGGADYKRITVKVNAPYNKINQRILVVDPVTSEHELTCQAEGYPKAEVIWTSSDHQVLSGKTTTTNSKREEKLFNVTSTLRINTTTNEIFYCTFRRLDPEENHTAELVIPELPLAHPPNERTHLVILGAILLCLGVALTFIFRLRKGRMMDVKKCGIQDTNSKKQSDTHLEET
# assay_notes: T cell activation luciferase reporter cell culture system (T Cell Activation Assay)
# Type: cell-based
# run_parameters: luciferase reporter assay; PD-L1 aAPC/CHO-K1 cells with PD-1 effector Jurkat T cells
Can you tell me EC50 for the items I'm about to list?
Your answer is read as µM, so omit the unit and give the number.

Short answer for `COc1cc(-c2nccc(-c3cccc(-c4ccc(CNC5CCOCC5)c(OC)n4)c3Cl)c2Cl)ccc1CNC1CCN(C(C)=O)CC1` : EC50 was 0.018

Recorded result, `COc1cc(-c2nccc(-c3cccc(-c4ccc(CNC5CCN(C(C)=O)CC5)c(OC)n4)c3Cl)c2F)ccc1CNC1CCN(C(C)=O)CC1` , EC50: 0.062

---

Consider the following compounds; for each one, report its IC50.
# subject_of_test: PD-L1 His protein / PD-1 Fc protein (Homo sapiens (Human))
# assay_notes: HTRF Assay (PD-1/PD-L1 interaction)
# Assay type: binding
# run_parameters: PD-L1 His 6 nM, PD-1 Fc 6 nM
State just the number; it will be interpreted in nM.

Data point: `COc1nc(-c2cccc(-c3ccnc(-c4ccc5c(CN6CC7(CNC(=O)C7)C6)nn(C)c5c4)c3Cl)c2Cl)ccc1CNC[C@@H]1CCC(=O)N1` ; IC50 = 2.33

Quick note, IC50 for `COc1cc(-c2nccc(-c3cccc(-c4ccc(CNC5CCN(C(C)=O)CC5)c(OC)n4)c3Cl)c2F)ccc1CNC1CCN(C(C)=O)CC1` landed at 0.3

Recorded result, `COc1cc(-c2nccc(-c3cccc4c3CC[C@@H]4Oc3nc(OC)c(CN4CC5(CNC(=O)C5)C4)cc3C(F)(F)F)c2Cl)ccc1CN1CC2(CNC(=O)C2)C1` , IC50: 4.4

// IC50 lookup, compound = `COc1cc(-c2nccc(-c3cccc(-c4ccc(CNC[C@@H]5CCC(=O)N5)c(OC)n4)c3Cl)c2Cl)ccc1CNC1(C(=O)OC(C)C)CC1` , result: 31.2

Lab note: measured IC50 of `COc1cc(-c2cccc(-c3ccnc(-c4cnc(CNC5CCN(C(C)=O)CC5)c(OC)c4)c3Cl)c2Cl)cnc1CNC1CCN(C(C)=O)CC1` was 17.7

So for `COc1cc(-c2nccc(-c3cccc(-c4ccc(CNC[C@H](C)O)c(OC)n4)c3Cl)c2Cl)cc2c1CN(CCC(=O)O)CC2` , the logged IC50 turned out to be 0.27

The recorded IC50 for entry `COc1nc(-c2cccc(-c3ccnc(-c4ccc(CNC5CCN(C(C)=O)CC5)c(OC(F)F)c4)c3Cl)c2Cl)ccc1CN1CC2(CNC(=O)C2)C1` equals 0.6

Noted for `COc1cc(-c2nccc(-c3cccc(-c4cc(F)c(CNC[C@@H]5CCC(=O)N5)c(OC)n4)c3Cl)c2Cl)cc2c1CN(C[C@H](C)O)CC2` : its IC50 reads 1.05

IC50 reading for `COc1cc(-c2nccc(-c3cccc(-c4ccc(CNC5CCOCC5)c(OC)n4)c3Cl)c2Cl)ccc1CNC1CCOCC1` : 1.78

Recorded result, `COc1nc(-c2cccc(-c3ccnc(-c4ccc5c(CNC[C@@H]6CCC(=O)N6)nn(C)c5c4)c3Cl)c2Cl)ccc1CNC[C@@H]1CCC(=O)N1` , IC50: 2.95

Reported IC50 ( `COc1cc(-c2nccc(-c3cccc(-c4ccc(CNC5CCN(C(C)=O)CC5)c(OC)n4)c3Cl)c2Cl)ccc1CNC1CCNCC1` ) = 3.67

Entry under test: `COc1nc(-c2ccnc(-c3cccc4c3CC[C@@H]4Oc3nc(OC)c(CNC[C@@H]4CCC(=O)N4)cc3C(F)(F)F)c2Cl)ccc1CNC1CCOCC1` . Its IC50 was 14.8

IC50 in this record for `COc1nc(-c2cccc(-c3ccnc(-c4ccc5c(c4)CCC[C@H]5NC[C@@H]4CCC(=O)N4)c3Cl)c2Cl)ccc1CNC[C@@H]1CCC(=O)N1` : 10.1

Field IC50 (entry `COc1cc(-c2nccc(-c3cccc(-c4ccc(CN5CC6(CNC(=O)C6)C5)c(OC)n4)c3Cl)c2Cl)cnc1CNC1CCOCC1` ) reads 1.13

Per the records, this compound ( `COc1cc(-c2nccc(-c3cccc(-c4ccc5c(CNCC(C)(C)O)cn(C)c5n4)c3Cl)c2Cl)ccc1CNC[C@@H]1CCC(=O)N1` ) has IC50 equal to 0.7

Reported IC50 ( `COc1nc(-c2cccc(-c3ccnc(-c4ccc5c(CNC6CCS(=O)(=O)CC6)cn(C)c5c4)c3Cl)c2Cl)ccc1CNC[C@@H]1CCC(=O)N1` ) = 0.2

What the record says about `COc1nc(-c2ccnc(-c3cccc(NC(=O)c4ccc(CNCCO)cn4)c3C)c2Cl)ccc1CNC1CCOCC1` : IC50 is 0.32

Input `COc1cc(-c2nccc(-c3cccc(-c4ccc(CN5CC6(CNC(=O)C6)C5)c(OC)n4)c3Cl)c2Cl)ccc1CNC1CCN(C(C)=O)CC1` . Output IC50: 1.8

According to the records, this compound `COc1cc(-c2nccc(-c3cccc(-c4cc(F)c(CNC[C@@H]5CCC(=O)N5)c(OC)n4)c3Cl)c2Cl)cc2c1CN(C[C@@H](C)O)CC2` displays IC50 of 0.662

The reported IC50 of the compound `COc1nc(-c2ccnc(-c3cccc4c3CC[C@@H]4Oc3nc(OC)c(CNC4CCN(C(C)=O)CC4)cc3C(F)(F)F)c2Cl)ccc1CNC1CCN(C(C)=O)CC1` was 94.3

Field IC50 (entry `COc1cc(-c2nccc(-c3cccc(-c4ccc(CN5CCC(NC(C)=O)CC5)c(OC)n4)c3Cl)c2Cl)ccc1CNC1CCN(C(C)=O)CC1` ) reads 1.14

The reported value for `COc1cc(-c2nccc(-c3ccnc(-c4ccc(CNC[C@@H]5CCC(=O)N5)c(OC)c4)c3Cl)c2Cl)ccc1CNC[C@@H]1CCC(=O)N1` in terms of IC50 is 8.3

In plain terms, `COc1nc(-c2cccc(-c3ccnc(-c4cc(OC)c5nc(CNCC(F)F)cn5c4)c3Cl)c2Cl)ccc1CNC1CCN(C(C)=O)CC1` has a documented IC50 of 43.9

Record summary for `COc1cc(-c2nccc(-c3cccc(-c4ccc5c(CN(C)CCO)cn(C)c5n4)c3Cl)c2Cl)ccc1CNC[C@@H]1CCC(=O)N1` : reported IC50 = 0.5
